assayed target: human MC4R receptor (human, UniProt P32245 1-332)
Sequence (P32245 whole entry): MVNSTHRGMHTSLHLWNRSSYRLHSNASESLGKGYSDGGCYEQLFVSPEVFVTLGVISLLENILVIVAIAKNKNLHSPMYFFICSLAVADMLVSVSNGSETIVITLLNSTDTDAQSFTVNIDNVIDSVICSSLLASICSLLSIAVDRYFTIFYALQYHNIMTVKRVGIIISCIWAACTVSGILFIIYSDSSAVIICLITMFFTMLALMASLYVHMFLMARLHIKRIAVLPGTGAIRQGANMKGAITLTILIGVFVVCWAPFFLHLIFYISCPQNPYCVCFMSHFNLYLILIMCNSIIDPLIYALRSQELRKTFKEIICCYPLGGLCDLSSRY
test summary: cell-based or functional assay
Positions of bridges follow the written chain, without caps; N, C: chain ends. Non-standard residues stand in square brackets, D forms with d. NMeR = CN[C@@H](CCCNC(=N)N)C(=O)O; Cit = NC(=O)NCCC[C@H](N)C(=O)O
measurement name: % max activation (%)
# number only, unit % dropped from output

What the record says about Ac-RCG[Cit][dF]RWC-NH2 (disulfide 2-8) [CTX-1294] : % max activation is 102

What the record says about {CH2CO}-[dA]H[dF]RFC-NH2 (thioether N-6; SMILES C[C@H]1NC(=O)CSC[C@@H](C(N)=O)NC(=O)[C@H](Cc2ccccc2)NC(=O)[C@H](CCCNC(=N)N)NC(=O)[C@@H](Cc2ccccc2)NC(=O)[C@H](Cc2c[nH]cn2)NC1=O) [CTX-1656] : % max activation is 98

What the record says about {CH2CO}-GH[dF]RFC-NH2 (thioether N-6; SMILES N=C(N)NCCC[C@@H]1NC(=O)[C@@H](Cc2ccccc2)NC(=O)[C@H](Cc2c[nH]cn2)NC(=O)CNC(=O)CSC[C@@H](C(N)=O)NC(=O)[C@H](Cc2ccccc2)NC1=O) [CTX-1653] : % max activation is 83

What the record says about Ac-RC[dA]R[dF][NMeR][dW]C-NH2 (disulfide 2-8; SMILES CC(=O)N[C@@H](CCCNC(=N)N)C(=O)N[C@H]1CSSC[C@@H](C(N)=O)NC(=O)[C@@H](Cc2c[nH]c3ccccc23)NC(=O)[C@H](CCCNC(=N)N)N(C)C(=O)[C@@H](Cc2ccccc2)NC(=O)[C@H](CCCNC(=N)N)NC(=O)[C@@H](C)NC1=O) [CTX-1284] : % max activation is 91

Ref: patent US20240391954A1
